- test.system: neuropeptide Y Y1 receptor (Y1R) (Homo sapiens, UniProt P25929)
- Sequence (P25929 whole entry): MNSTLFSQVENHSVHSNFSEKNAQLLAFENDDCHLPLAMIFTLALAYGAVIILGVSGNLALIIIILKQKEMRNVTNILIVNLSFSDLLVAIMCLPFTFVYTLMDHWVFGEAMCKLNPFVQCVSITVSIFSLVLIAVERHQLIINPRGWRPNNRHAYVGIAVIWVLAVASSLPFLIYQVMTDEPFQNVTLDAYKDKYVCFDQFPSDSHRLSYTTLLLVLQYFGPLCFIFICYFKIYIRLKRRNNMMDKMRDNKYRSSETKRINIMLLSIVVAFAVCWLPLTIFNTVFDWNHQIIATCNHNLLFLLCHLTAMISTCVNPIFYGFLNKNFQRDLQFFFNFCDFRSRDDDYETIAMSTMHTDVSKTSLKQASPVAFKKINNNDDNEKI
- test.description: radioligand saturation binding on whole MCF-7 (L) cells
readout.name: Kd

(Q) Recall and state the measured Kd for CCC(=O)/N=C(/N)NCCC[C@@H](NC(=O)C(c1ccccc1)c1ccccc1)C(=O)NCc1ccc(O)cc1 [[^3H]-UR-MK114] .
(A) 5 nM
